Would you kindly list viscosity for each of these molecules?
- conditionParameters: 308.15 K; 101 kPa; Liquid; Capillary tube (Ostwald / Ubbelohde) method
Field format: number, assumed mPa·s, no unit text.

Q) Return reported viscosity; argument: CC1COC(=O)O1 (centres undefined)
A) 2.073

Q) Item: `CC(=O)CC(C)=O`
A) 0.609

Q) Item: C1CCOC1 [tetrahydrofuran]
A) 0.426

Q) Item: `C1COCCO1`
A) 1.029

----------
- conditionParameters: 288.15 K; 101 kPa; Liquid; Pycnometric method
Would you kindly list mass density for each of these compounds?
Field format: number, assumed kg/m3, no unit text.

Q) Return reported mass density; argument: `CC(=O)CC(C)=O`
A) 980.34

Q) Item: CC1COC(=O)O1 (centres undefined)
A) 1208.67

Q) Item: C1CCOC1 [tetrahydrofuran]
A) 892.93

Q) Item: `C1COCCO1`
A) 1039.1

----------
Would you kindly list viscosity for each of these molecules?
- conditionParameters: 288.15 K; 101 kPa; Liquid; Capillary tube (Ostwald / Ubbelohde) method
Field format: number, assumed mPa·s, no unit text.

Q) Return reported viscosity; argument: `CC(=O)CC(C)=O`
A) 0.741

Q) Item: CC1COC(=O)O1 (centres undefined)
A) 3.086

Q) Item: `C1COCCO1`
A) 1.44

Q) Item: C1CCOC1 [tetrahydrofuran]
A) 0.508

----------
- conditionParameters: 308.15 K; 101 kPa; Liquid; Pycnometric method
Would you kindly list mass density for each of these compounds?
Field format: number, assumed kg/m3, no unit text.

Q) Return reported mass density; argument: `CC(=O)CC(C)=O`
A) 963.46

Q) Item: CC1COC(=O)O1 (centres undefined)
A) 1187.16

Q) Item: C1CCOC1 [tetrahydrofuran]
A) 870.85

Q) Item: `C1COCCO1`
A) 1016.55

----------
- conditionParameters: 298.15 K; 101 kPa; Liquid; Pycnometric method
quantity: mass density (kg/m3)
Field format: number, assumed kg/m3, no unit text.

Q) Return reported mass density; argument: CC1COC(=O)O1 (centres undefined) [4-methyl-1,3-dioxolan-2-one]
A) 1197.58

Q) Item: C1COCCO1 [1,4-dioxane]
A) 1027.92

Q) Item: CC(=O)CC(C)=O [2,4-pentanedione]
A) 972.18

Q) Item: C1CCOC1 [tetrahydrofuran]
A) 881.96

----------
- conditionParameters: 298.15 K; 101 kPa; Liquid; Capillary tube (Ostwald / Ubbelohde) method
± gives the expanded uncertainty stated by the source.
quantity: viscosity
Answer format: value, then unit.

Q) Return reported viscosity; argument: CC1COC(=O)O1 (centres undefined)
A) 2.5 ± 0.021 mPa·s

Q) Item: C1CCOC1 [tetrahydrofuran]
A) 0.462 ± 0.004 mPa·s

Q) Item: `C1COCCO1`
A) 1.185 ± 0.01 mPa·s

Q) Item: `CC(=O)CC(C)=O`
A) 0.67 ± 0.006 mPa·s
